Sourced from patent US10323027B2

target: human M1 receptor (hCHRM1) (Homo sapiens); construct: expressed in transfected cells; assay: Measurement of M1 receptor positive allosteric modulator (M1PAM) activity, Ca2+ fluorescence by FLIPRtetra (Experimental Example 1); assay type: cell-based; conditions: inflection point of concentration-dependent curve, in presence of acetylcholine at EC20 (0.8-1.0 nM), CHO-K1 cells expressing hCHRM1, read-out: IP value
Counter-ions that a name gives are not always drawn.
Measurement Name: log10(EC50) (log10 of the value in nM)

- Molecule: "COc1c(Cc2ccc(-c3cnn(C)c3)nc2)cc2c(c1F)OCN(CC1CCCO1)C2=O (stereo not shown)"
  Obs Value: 1.77
- Molecule: "COc1c(Cc2ccc(-n3ccnc3)nc2)cc2c(c1F)OCN([C@H]1CCC[C@@H]1O)C2=O (relative stereo)"
  Obs Value: 0.87
- Molecule: "Cc1cc2c(cc1CN1CCC(F)(F)CC1)C(=O)N([C@H]1CCCC[C@@H]1O)CO2 (relative stereo)"
  Obs Value: 2.04
- Molecule: "Cc1c(Cc2ccc(-n3cccn3)cc2)cc2c(c1F)OCN([C@H]1COCC[C@@H]1O)C2=O"
  Obs Value: 0.26
- Molecule: "Cc1c(Cc2ccc(-c3ccn(C)n3)cc2)cc2c(c1F)OCN([C@H]1CCC[C@@H]1O)C2=O"
  Obs Value: 0.66
- Molecule: "O=C1c2cc(Cc3ccc(Cl)nc3)c3ccccc3c2OCN1[C@H]1COCC[C@@H]1O [Example 125]"
  Obs Value: 0.58
- Molecule: "Cc1c(Cc2ccc(Cl)nc2)cc2c(c1F)OCN([C@H]1CCCC[C@@H]1O)C2=O"
  Obs Value: 1.04
- Molecule: "N#CC1CCN(Cc2cc3c(c4ccccc24)OCN([C@H]2CCC[C@@H]2O)C3=O)C1 (stereo partly shown)"
  Obs Value: 1.78
- Molecule: "Cc1ccc(Cc2cc3c(c(F)c2Cl)OCN([C@H]2CCC[C@@H]2O)C3=O)cn1"
  Obs Value: 1.93
- Molecule: "Cc1cc2c(cc1Cc1ccc(-n3cccn3)cc1)C(=O)N([C@H]1CCCC[C@@H]1O)CO2 (relative stereo)"
  Obs Value: 1.04
- Molecule: "O=C1NCOc2c1cc(Cc1ccc(Cl)nc1)c1ccccc21"
  Obs Value: 1.91
- Molecule: "Cn1cc(-c2ccc(Cc3ccc4c(c3)C(=O)N([C@H]3CCCC[C@@H]3O)CO4)cc2)cn1 (relative stereo)"
  Obs Value: 1.64
- Molecule: "Cc1ccc(Cc2cc3c(c(C)c2C)OCN([C@H]2CCC[C@@H]2O)C3=O)cn1 [Example 26, monohydrochloride]"
  Obs Value: 0.73
- Molecule: "O=C1c2cc(CN3CCC(F)(F)CC3)c3ccccc3c2OCN1[C@H]1CCC[C@@H]1O"
  Obs Value: 1.20
- Molecule: "O=C1c2cc(CN3CCCC(F)(F)C3)c3ccccc3c2OCN1[C@H]1CCC[C@@H]1O"
  Obs Value: 1.76
- Molecule: "Cc1ccc(Cc2cc3c(c(F)c2C)OCN([C@H]2CCCC[C@@H]2O)C3=O)cn1"
  Obs Value: 0.78

---

Biological target: human M1 receptor (hCHRM1) (Homo sapiens)
Construct: expressed in transfected cells
Sequence (P11229 1-460): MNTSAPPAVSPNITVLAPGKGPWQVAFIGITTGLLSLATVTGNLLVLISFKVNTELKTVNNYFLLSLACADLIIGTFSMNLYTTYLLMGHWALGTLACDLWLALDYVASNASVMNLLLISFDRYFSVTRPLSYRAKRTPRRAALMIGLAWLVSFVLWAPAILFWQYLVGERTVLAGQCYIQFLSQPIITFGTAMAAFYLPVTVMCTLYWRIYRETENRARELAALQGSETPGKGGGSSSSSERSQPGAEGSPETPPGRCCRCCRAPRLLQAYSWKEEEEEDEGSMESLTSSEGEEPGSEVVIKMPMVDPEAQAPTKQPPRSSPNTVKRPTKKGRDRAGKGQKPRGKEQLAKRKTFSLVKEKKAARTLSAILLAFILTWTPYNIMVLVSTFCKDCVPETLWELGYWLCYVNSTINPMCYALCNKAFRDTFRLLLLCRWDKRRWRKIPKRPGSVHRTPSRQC
Experiment: Measurement of M1 receptor positive allosteric modulator (M1PAM) activity, Ca2+ fluorescence by FLIPRtetra (Experimental Example 1)
Assay type: cell-based
Settings: 10 μM test compound, 100% = acetylcholine 1 μM, 0% = DMSO

- Molecule: "Cc1c(Cc2ccc(Cl)nc2)cc2c(c1C)OCN([C@H]1COCC[C@@H]1O)C2=O (relative stereo) [Example 31]"
  Reading Unit: "%"
  activity (%) at 10 μM: 99
- Molecule: "Cc1ccc(Cc2cc3c(c4ccccc24)OCN(CC2CCCO2)C3=O)cn1 (stereo not drawn) [Example 58]"
  Reading Unit: "%"
  activity (%) at 10 μM: 94
- Molecule: "Cc1c(Cc2ccc(Cl)nc2)cc2c(c1F)OCN([C@H]1CCCC[C@@H]1O)C2=O"
  Reading Unit: "%"
  activity (%) at 10 μM: 116
- Molecule: "Cc1ccc(Cc2cc3c(c(F)c2Cl)OCN([C@H]2CCC[C@@H]2O)C3=O)cn1"
  Reading Unit: "%"
  activity (%) at 10 μM: 110
- Molecule: "Cc1ccc(Cc2cc3c(c(C)c2C)OCN([C@H]2COCC[C@@H]2O)C3=O)cn1 [Example 137]"
  Reading Unit: "%"
  activity (%) at 10 μM: 104
- Molecule: "Cc1ccc(Cc2cc3c(c4ccccc24)OCN([C@H]2CCC[C@@H]2O)C3=O)cn1"
  Reading Unit: "%"
  activity (%) at 10 μM: 98
- Molecule: "Cc1c(Cc2ccc(-n3cccn3)cc2)cc2c(c1F)OCN([C@H]1COCC[C@@H]1O)C2=O"
  Reading Unit: "%"
  activity (%) at 10 μM: 96
- Molecule: "Cc1c(Cc2ccc(-n3ccnc3)nc2)cc2c(c1Cl)OCN([C@H]1CCC[C@@H]1O)C2=O (relative stereo)"
  Reading Unit: "%"
  activity (%) at 10 μM: 88
- Molecule: "Cn1cc(-c2ccc(Cc3cc4c(c5ccccc35)OCNC4=O)cn2)cn1"
  Reading Unit: "%"
  activity (%) at 10 μM: 110
- Molecule: "COc1ccc(Cc2cc3c(c4ccccc24)OCN([C@H]2COCC[C@@H]2O)C3=O)cn1"
  Reading Unit: "%"
  activity (%) at 10 μM: 109
- Molecule: "O=C1c2cc(CN3CCOCC3)c3ccccc3c2OCN1[C@H]1CCC[C@@H]1O"
  Reading Unit: "%"
  activity (%) at 10 μM: 104
- Molecule: "Cc1cc2c(cc1Cc1ccc(-c3cn(C)nc3C)nc1)C(=O)N(CC1CCCO1)CO2 (stereo not drawn)"
  Reading Unit: "%"
  activity (%) at 10 μM: 93
- Molecule: "O=C1c2cc(Cc3ccc(Cl)nc3)c3ccccc3c2OCN1[C@H]1COCC[C@@H]1O [Example 125]"
  Reading Unit: "%"
  activity (%) at 10 μM: 89
- Molecule: "Cc1c(Cc2ccc(Cl)nc2)cc2c(c1Cl)OCN([C@H]1CCC[C@@H]1O)C2=O"
  Reading Unit: "%"
  activity (%) at 10 μM: 94
- Molecule: "Cc1c(Cc2ccc(-n3cccn3)nc2)cc2c(c1Cl)OCN([C@H]1CCC[C@@H]1O)C2=O (relative stereo)"
  Reading Unit: "%"
  activity (%) at 10 μM: 101
